target: HIV reverse transcriptase (RT) (Human immunodeficiency virus type 1 group M subtype B, UniProt P03366); construct: The enzyme RT (from HIV cloned in E. coli); purchased HT-Biotechnology Ltd, Cambridge, UK; host or cells: E. coli; test: Assay for HIV reverse transcriptase inhibition (scintillation proximity assay); type: biochemical; conditions: RT from HIV cloned in E. coli; SPA, 60 minutes (37° C.); read-out: Reverse Transcriptase Assay IC50 (converted)
Known log10 of IC50 of a selection of molecules
Measurement Name: log10 of IC50 (log10 of the value in nM)

{"columns": ["Structure", "log10 of IC50"],
 "data": [
  ["C[C@H]1C(=O)Nc2c(N)cc(Cl)cc2N1C(=O)OCc1ccccc1", 4.34],
  ["CC(C)=CCN1c2cc(Cl)ccc2NC(=O)[C@@H]1C", 2.48],
  ["C=COC(=O)N1c2cc(Cl)ccc2NC(=O)[C@@H]1C", 2.78],
  ["C=C(C)OC(=O)N1c2cc(Cl)ccc2NC(=S)[C@@H]1C", 1.93],
  ["CC=CCN1c2cc(Cl)ccc2NC(=O)[C@@H]1C", 2.60]
]}

----------
Measurement Name: melting point

{"columns": ["Molecule", "Measurement Name", "Observed Result"],
 "data": [
  ["C[C@H]1C(=O)Nc2ccc(Cl)cc2N1C(=O)Cl", "melting point", "142 to 144 °C"],
  ["O=C1Nc2cc(S(=O)(=O)Oc3ccccc3)ccc2N2C(=O)CCC12 (stereo not drawn)", "melting point", "140 °C (dec.)"],
  ["COc1ccc(OC(=O)N2c3cc(Cl)ccc3NC(=O)[C@@H]2C)cc1", "melting point", "187 to 190 °C"],
  ["CC1C(=O)Nc2ccc(Cl)cc2N1C1CC1 (racemic)", "melting point", "167 °C"],
  ["C[C@H]1Nc2cc(Cl)ccc2NC1=O", "melting point", "123 to 124 °C"],
  ["CC1(C)Nc2ccc(Cl)cc2N(C2CC2)C1=O", "melting point", "132 to 133 °C"],
  ["CC(C)=CCN1CC(=O)Nc2cc(S(=O)(=O)Oc3ccccc3)ccc21", "melting point", "132 °C"],
  ["C=CC(C)(C)C1C(=O)Nc2ccc(Cl)cc2N1CC=C(C)C (stereo not drawn)", "melting point", "110 to 112 °C"],
  ["C=C(C)OC(=O)N1c2ccc(C)cc2NC(=O)C1(C)C", "melting point", "185 °C"],
  ["C[C@H]1C(=O)Nc2c(N)cc(Cl)cc2N1C(=O)OCc1ccccc1", "melting point", "152 to 154 °C"],
  ["COc1cc2c(cc1OC)NC(C)C(=O)N2 (stereo not drawn)", "melting point", "151 °C"],
  ["C=COC(=O)N1c2cc(Cl)ccc2NC(=O)[C@@H]1C", "melting point", "177 to 179 °C"],
  ["C=C(C)OC(=O)N1c2cc(Cl)ccc2NC(=S)[C@@H]1C", "melting point", "148 to 150 °C"],
  ["CC=CCN1c2cc(Cl)ccc2NC(=O)[C@@H]1C", "melting point", "87 to 88 °C"],
  ["C[C@H]1C(=O)Nc2ccc(Cl)cc2N1C(=O)OCCBr", "melting point", "133 to 136 °C"]
]}

Cited source: patent US6369057B1
